# assay_target: T1, human glucose-dependent insulinotropic polypeptide receptor (GIPR), expressed on CHO-K1 cells (human, UniProt P48546 22-466)
# T1 sequence (looked up): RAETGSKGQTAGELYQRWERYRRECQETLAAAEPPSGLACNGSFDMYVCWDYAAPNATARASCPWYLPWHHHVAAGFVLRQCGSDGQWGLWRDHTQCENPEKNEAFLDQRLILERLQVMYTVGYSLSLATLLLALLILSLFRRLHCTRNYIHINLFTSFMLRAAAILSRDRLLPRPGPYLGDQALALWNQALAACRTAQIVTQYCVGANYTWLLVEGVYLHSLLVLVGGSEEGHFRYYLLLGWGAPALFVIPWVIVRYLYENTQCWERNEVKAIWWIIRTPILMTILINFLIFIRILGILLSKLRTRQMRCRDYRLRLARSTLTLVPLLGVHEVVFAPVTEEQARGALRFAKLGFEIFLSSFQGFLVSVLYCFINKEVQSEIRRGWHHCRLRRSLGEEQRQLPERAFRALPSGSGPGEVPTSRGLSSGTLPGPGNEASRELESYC
# protocol: cell-based or functional assay
Numbered stars: 1 amine (or outer) side, 2 acyl side, 3 side chain; on linkers, the order of the positions; unused ones are H or OH. Square brackets hold non-standard residues; d marks the D form. Primed or numbered codes have the meaning given here. Side chains are listed from the residue outwards. Ends that are not written are not given here. * marks the point of attachment. C18″ = C18 fatty acid moiety (of 2OEG-γGlu-C18, K*); γGlu = O=C(O)[C@H](CCC(=O)[*:2])N[*:1]; AEEA = NCCOCCOCC(=O)O; Aib = CC(C)(N)C(=O)O
Recorded Relative % to non-lipidated peptide by entry
measure: Relative % to non-lipidated peptide (%)

H[Aib]QGTFTSDYSK([AEEA-AEEA-γGlu-C18″])YLDYMMARDFVQWLIEGGPSSGAPPPS-NH2 [Peptide No. 5D] = 93
Y[Aib]QGTFTSDYSK([AEEA-AEEA-γGlu-C18″])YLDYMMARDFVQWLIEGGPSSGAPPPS-NH2 [Peptide No. 5-1D] = 323
Y[Aib]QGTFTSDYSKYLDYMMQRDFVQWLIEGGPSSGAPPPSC-NH2 [Peptide No. 5-2] = 100
Y[Aib]QGTFTSDYSK([AEEA-AEEA-γGlu-C18″])YLDYMMQRDFVQWLIEGGPSSGAPPPS-NH2 [Peptide No. 5-2D] = 13
Y[Aib]QGTFTSDK([AEEA-AEEA-γGlu-C18″])SKYLDYMMARDFVQWLIEGGPSSGAPPPS-NH2 [Peptide No. 5-1E] = 5
